B1: OR4K15 (parent)
chain: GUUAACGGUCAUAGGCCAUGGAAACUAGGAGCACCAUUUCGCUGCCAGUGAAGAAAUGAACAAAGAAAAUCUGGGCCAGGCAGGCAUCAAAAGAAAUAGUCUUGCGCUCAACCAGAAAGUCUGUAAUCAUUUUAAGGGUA

variants of: B1; assay: self-cleavage, relative activity (ratio to wild type); higher = more cleavage; in vitro, sequencing; the parent is a self-cleaving ribozyme
READOUT: self-cleavage
I only need the number, thanks.

### Prompt Output self-cleavage of U39C A91G
### Response 1.4

### Prompt Supply measured self-cleavage of U49C A66G in your reply.
### Response 1.55

### Prompt Identify self-cleavage associated with the variant C88A A111G
### Response 0

### Prompt Quote self-cleavage reported for A22G U97G please.
### Response 1.42

### Prompt Identify self-cleavage associated with the variant C17U A67G
### Response 1.26

### Prompt Annotate the variant A86G A111G with its measured self-cleavage.
### Response 0.02

### Prompt Output measured self-cleavage for this item: A23U U131C
### Response 1.02

### Prompt Kindly indicate its recorded self-cleavage. Item: G8U
### Response 1.49

### Prompt Provide only the value of recorded self-cleavage for A24G A89C
### Response 1.51

### Prompt Return self-cleavage (reported value) for this variant: A52U G79A
### Response 0.37

### Prompt Complete the entry with self-cleavage for U108G
### Response 0.02

### Prompt Give the reported self-cleavage for this variant. A114G U124C
### Response 0.07

### Prompt Report measured self-cleavage; entry is A98G U130C
### Response 0.41

### Prompt // Input: U120A A126G . Output its self-cleavage only.
### Response 1.64

### Prompt Identify the reported self-cleavage for the following entry. U72A A126G
### Response 0.16

### Prompt Recall and state the measured self-cleavage for A11G G84U .
### Response 0.53

### Prompt Annotate the variant G7A U139C with its measured self-cleavage.
### Response 1.82

### Prompt Fill in reported self-cleavage for this entry: U2A A64G
### Response 1.24

### Prompt Consider the variant A60G A82G and give its recorded self-cleavage.
### Response 0.21

### Prompt Give the measured self-cleavage for A55G A92U
### Response 1.65

### Prompt Quote self-cleavage reported for A54G G104A please.
### Response 0.09

### Prompt Identify the reported self-cleavage for the following entry. A67G A96G
### Response 1.53

### Prompt Give the measured self-cleavage for A5G G48A
### Response 0.77

### Prompt Consider the variant A30U G115A and give its recorded self-cleavage.
### Response 0.22

### Prompt Give self-cleavage for A51G U139A
### Response 1.48

### Prompt Please give measured self-cleavage of the following entry: U97A A118G
### Response 1.01

### Prompt Give me measured self-cleavage, please, for this variant: A91U A126U
### Response 1.56

### Prompt Specify measured self-cleavage for A114G U132A .
### Response 0.7

### Prompt Report measured self-cleavage; entry is C121A G137A
### Response 1.87

### Prompt Name the recorded self-cleavage of the variant listed here: A55U A126G
### Response 1.47

### Prompt Let me know recorded self-cleavage for A23G C61U , thanks.
### Response 1.24

### Prompt Quick one: give measured self-cleavage for A11U A118U
### Response 0.51

### Prompt Tell me its self-cleavage given A22U A78U as the entry.
### Response 0.33

### Prompt Tell us which self-cleavage value is on record for U19G A64G
### Response 1.49

### Prompt Identify measured self-cleavage associated with A13G C17U
### Response 1.46

### Prompt Quick one: give measured self-cleavage for U3G A59G
### Response 0.68

### Prompt Determine its reported self-cleavage: A5U A82U
### Response 0.38

### Prompt Tell me self-cleavage reported for U43A U102A
### Response 0.78

### Prompt For the variant A129U U131C , give its measured self-cleavage value.
### Response 0.96

### Prompt Output measured self-cleavage for this item: A86G A114G
### Response 0.48

### Prompt Check the records and state self-cleavage for A54U U100A
### Response 0.59

### Prompt Give the measured self-cleavage for G50A A60C
### Response 1.9
